The measured values listed here are drawn from the supplement of paper PMC9170038.

Recorded apparent KD of MS2 coat protein by entry
System: MS2 coat protein
measurementDescription: apparent KD of MS2 coat protein; designed switch direction (-1 OFF switch, 1 ON switch): -1; higher = weaker reporter binding
assayConditions: input ligand: none
# include the unit after the value

Past entries and their recorded results:
UCCUUAUCGGUCAGGAUAUACACCCGUUUCUCCUUGUAGAAGGGACAUGAGGAUCACCCAUGUACAGUACAUUU [alecazam66] (Eterna round: R97, puzzle: Brourd's mod of Exclusion 4) = 26.8 nM
AGAGUGCUGCGAGGAUAUACAUGAGGAUCACCCAUGUAAUCGUGUGAGGCAAAGCCUCACACGAUGUAGAAGGCGCAGUACUCA [Mat - Exclusion NG 2 - Mod of JL - D24] (Eterna round: R96, puzzle: Exclusion NG 2) = 16.7 nM
CUUCUGUGAGGAUAUUAGUAGUAAAUGAAUAAAAUUAUUACUGAGAAGGCACAUGAGGAUCACCCAUGUUCCUC [Mat - Exclusion 4 - Eli Mod - D12] (Eterna round: R97, puzzle: Exclusion 4) = 36.3 nM

Query string: Give the value of apparent KD of MS2 coat protein reported for the following: UAUUAGCAAGCAAGAUCCCACAUGAGGAUCACCCAUGUGCUCGUCUUAAUUCCAGAAUUACUGGGCUCUCGUCUUAU [JR_STOV1_Sub090] (Eterna round: R97, puzzle: Sensor, turn-off variant 1)
Result string: 40.6 nM
